FYI, the data here is from ChEMBL document CHEMBL4425144.

Molecular target: Epidermal growth factor receptor (Homo sapiens, UniProt P00533, L858R/T790M)
Sequence (P00533 25-1210 T790M/L858R limits assumed): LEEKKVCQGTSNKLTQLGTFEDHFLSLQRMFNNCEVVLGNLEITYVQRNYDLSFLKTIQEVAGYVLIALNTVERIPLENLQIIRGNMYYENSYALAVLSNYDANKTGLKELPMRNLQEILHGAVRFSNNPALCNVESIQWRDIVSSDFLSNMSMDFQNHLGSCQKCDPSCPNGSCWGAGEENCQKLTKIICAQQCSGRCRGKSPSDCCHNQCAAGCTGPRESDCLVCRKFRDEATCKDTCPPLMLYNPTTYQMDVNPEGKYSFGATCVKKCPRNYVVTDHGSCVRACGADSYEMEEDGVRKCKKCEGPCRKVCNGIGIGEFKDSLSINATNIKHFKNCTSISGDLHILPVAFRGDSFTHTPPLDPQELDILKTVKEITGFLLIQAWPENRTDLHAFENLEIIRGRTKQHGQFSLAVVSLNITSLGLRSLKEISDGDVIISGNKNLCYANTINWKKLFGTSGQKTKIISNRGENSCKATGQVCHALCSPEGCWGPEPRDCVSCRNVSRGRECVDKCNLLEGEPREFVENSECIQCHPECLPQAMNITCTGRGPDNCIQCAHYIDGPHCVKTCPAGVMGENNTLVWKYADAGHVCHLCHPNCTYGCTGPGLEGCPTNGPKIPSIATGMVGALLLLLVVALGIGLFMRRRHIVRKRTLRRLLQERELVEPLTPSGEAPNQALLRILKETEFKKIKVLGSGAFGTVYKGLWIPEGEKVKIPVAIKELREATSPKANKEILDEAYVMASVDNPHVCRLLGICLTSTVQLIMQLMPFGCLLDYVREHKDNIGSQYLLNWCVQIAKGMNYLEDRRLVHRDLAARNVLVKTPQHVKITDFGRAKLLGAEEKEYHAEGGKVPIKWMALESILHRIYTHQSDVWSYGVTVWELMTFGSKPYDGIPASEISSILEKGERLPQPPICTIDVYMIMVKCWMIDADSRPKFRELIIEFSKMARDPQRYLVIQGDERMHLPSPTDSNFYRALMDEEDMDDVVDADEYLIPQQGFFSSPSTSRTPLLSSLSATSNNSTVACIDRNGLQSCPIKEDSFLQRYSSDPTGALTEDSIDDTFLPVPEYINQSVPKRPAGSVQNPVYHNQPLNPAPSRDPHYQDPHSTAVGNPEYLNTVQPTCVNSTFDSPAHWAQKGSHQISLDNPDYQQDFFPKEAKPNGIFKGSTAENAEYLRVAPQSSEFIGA
Assay: Inhibition of EGFR kinase domain L858R/T790M mutant (unknown origin) expressed using baculovirus expression system incubated for 1 hr using Poly(Glu,Tyr) 4:1 by ELISA method
// reported IC50 for each item listed

smiles.code	assayed.system	IC50, nM
C=CC(=O)Nc1cccc(-n2c(=O)c(=O)n(C(C)C)c3cnc(Nc4ccc(N5CCN(C)CC5)cc4OC)nc32)c1	Epidermal growth factor receptor (Homo sapiens, UniProt P00533, L858R/T790M)	0.3
C=CC(=O)Nc1cccc(-n2c(=O)c(=O)n(CCC)c3cnc(Nc4ccc(N5CCN(C)CC5)cc4OC)nc32)c1	Epidermal growth factor receptor (Homo sapiens, UniProt P00533, L858R/T790M)	0.6
C=CC(=O)Nc1cccc(-n2c(=O)c(=O)n(CC)c3cnc(Nc4ccc(N5CCN(C)CC5)cc4OC)nc32)c1	Epidermal growth factor receptor (Homo sapiens, UniProt P00533, L858R/T790M)	1.2
